Assay: Waters ACQUITY UPLC BEH C18, 50 × 2.1 mm, 1.7 µm, 30 °C, 0.3 mL/min, estimated dead time 0.37 min; A: water + 0.3% formic acid; B: acetonitrile; gradient (min/%B) 0.5/5 3.5/20 5.5/25 7/57 8/90
Details: stereoisomer not certain
// reported LC retention time per item
ENDPOINT_LABEL: LC retention time

MOLECULE	ENDPOINT_LABEL	READING
CNC(C)(C)Cc1ccccc1	LC retention time	3.14 min
CCCCCC(C)N (stereo unspecified)	LC retention time	3.17 min
CCC1(c2ccc(N)cc2)CCC(=O)NC1=O (stereo unspecified)	LC retention time	2.2 min
C#CC1(O)CCC2C3C(C)CC4=C(CCC(=O)C4)C3CCC21C (stereo unspecified)	LC retention time	7.51 min
CC(N)Cc1ccc(O)cc1 (stereo unspecified)	LC retention time	1.17 min
CC1CC2C(C(O)CC3(C)C2CCC3(O)C(=O)CO)C2(C)C=CC(=O)C=C12 (stereo unspecified)	LC retention time	6.78 min

----------
Experiment: Waters ACQUITY UPLC BEH C18, 50 × 2.1 mm, 1.7 µm, 30 °C, 0.3 mL/min, estimated dead time 0.37 min; A: water + 0.3% formic acid; B: acetonitrile; gradient (min/%B) 0.5/5 3.5/20 5.5/25 7/57 8/90
Details: stereoisomer not certain
ENDPOINT_LABEL: LC retention time (min)

MOLECULE	UNITS_SYMBOL	READING
CN1C2CCC1C(C(=O)O)C(OC(=O)c1ccccc1)C2 (stereo not given)	min	3.31
CCC(C(=O)OCCN1CCOC(c2ccccc2)C1C)c1ccccc1 (stereo not given)	min	7.17
O=C1CC2OCC=C3CN4CCC56c7ccccc7N1C5C2C3CC46 (stereo not given)	min	3.01
COC12CCC3(CC1C(C)(O)C(C)(C)C)C1Cc4ccc(O)c5c4C3(CCN1CC1CC1)C2O5 (stereo not given)	min	6.55
CCCC1OC2CC3C4CCC5=CC(=O)C=CC5(C)C4C(O)CC3(C)C2(C(=O)CO)O1 (stereo not given)	min	7.46
CC(C)(C)NCC(O)COc1cccc2c1CCCC2=O (stereo not given)	min	4
CCC1(O)CCC2C3CCC4=CC(=O)CCC4=C3C=CC21CC (stereo not given)	min	7.79
NC(=O)CS(=O)C(c1ccccc1)c1ccccc1 (stereo not given)	min	6.01
Cc1ccc(CC(C)N)cc1 (stereo not given)	min	3.45
OCc1cc(C(O)CNCCCCCCOCCCCc2ccccc2)ccc1O (stereo not given)	min	7.12
CN(C)C(=O)Oc1cc(OC(=O)N(C)C)cc(C(O)CNC(C)(C)C)c1 (stereo not given)	min	4.59
CC(C)(C)NCC(O)c1cc(O)cc(O)c1 (stereo not given)	min	1.44
CNC(C)CCC=C(C)C (stereo not given)	min	3.6
CC(CCc1ccccc1)NCC(O)c1ccc(O)c(C(N)=O)c1 (stereo not given)	min	5.1
c1ccc(CN2CCNCC2)cc1	min	0.67
Nc1nc(N)c(-c2ccccc2)s1	min	1.84
CCN(CC)C(=O)c1cccnc1	min	2.02
C1CCc2nnnn2CC1	min	2.4
COC(=O)CCc1ccc(OCC(O)CNC(C)C)cc1 (stereo not given)	min	4.31
CNCC(C)c1ccccc1 (stereo not given)	min	2.57

----------
Assay: Waters ACQUITY UPLC BEH C18, 50 × 2.1 mm, 1.7 µm, 30 °C, 0.3 mL/min, estimated dead time 0.37 min; A: water + 0.3% formic acid; B: acetonitrile; gradient (min/%B) 0.5/5 3.5/20 5.5/25 7/57 8/90
Conditions: stereoisomer not certain
ENDPOINT_LABEL: LC retention time (min)

COMPOUND	READING
CC(C)NCC(O)COc1ccc(COCCOC(C)C)cc1 (stereo not drawn)	5.03
CC(C)=CCN1CCC2(C)c3cc(O)ccc3CC1C2C (stereo not drawn)	5.07
CCCC(Cc1ccccc1)N1CCCC1 (stereo not drawn)	5.09
